- Test Target: A disintegrin and metalloproteinase with thrombospondin motifs 5 (Homo sapiens, UniProt Q9UNA0)
- Sequence (Q9UNA0 whole entry): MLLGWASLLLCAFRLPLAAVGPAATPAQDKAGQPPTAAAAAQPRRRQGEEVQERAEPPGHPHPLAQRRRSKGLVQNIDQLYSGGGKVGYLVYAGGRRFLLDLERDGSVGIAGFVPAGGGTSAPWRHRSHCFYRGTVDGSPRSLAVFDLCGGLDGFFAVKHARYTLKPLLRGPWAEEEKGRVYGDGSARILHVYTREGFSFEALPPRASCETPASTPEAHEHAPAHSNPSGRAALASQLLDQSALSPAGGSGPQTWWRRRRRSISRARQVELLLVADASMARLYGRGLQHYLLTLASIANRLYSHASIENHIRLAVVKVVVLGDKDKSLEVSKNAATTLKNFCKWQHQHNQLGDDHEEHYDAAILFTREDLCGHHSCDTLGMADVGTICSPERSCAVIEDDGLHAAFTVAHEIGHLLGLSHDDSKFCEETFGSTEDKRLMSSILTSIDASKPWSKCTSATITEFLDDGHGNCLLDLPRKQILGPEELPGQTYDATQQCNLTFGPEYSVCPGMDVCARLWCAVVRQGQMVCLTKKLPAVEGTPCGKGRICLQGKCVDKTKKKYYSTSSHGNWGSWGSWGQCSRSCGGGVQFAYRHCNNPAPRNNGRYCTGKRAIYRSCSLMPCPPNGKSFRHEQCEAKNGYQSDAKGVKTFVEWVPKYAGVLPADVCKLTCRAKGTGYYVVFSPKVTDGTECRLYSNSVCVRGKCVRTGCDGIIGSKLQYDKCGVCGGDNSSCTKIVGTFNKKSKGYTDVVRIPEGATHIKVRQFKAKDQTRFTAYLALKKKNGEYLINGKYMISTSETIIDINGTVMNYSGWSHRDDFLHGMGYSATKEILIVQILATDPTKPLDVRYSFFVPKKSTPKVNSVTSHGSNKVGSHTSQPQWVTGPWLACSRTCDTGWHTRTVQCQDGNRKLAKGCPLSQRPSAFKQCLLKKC
Below, each entry is listed with its recorded IC50.
Measured Property: IC50 (nM)

>>> print(df.to_string())
                    structure_smiles_string  measured_property  numeric_value
0  O=CN(O)C1(CS(=O)(=O)N2CCC(CCc3ccc(F)cc3C(F)(F)F)CC2)CCN(C(=O)C2CCC2)CC1               IC50             61
1  Cc1cnc(C)c(CCC2CCN(S(=O)(=O)CC3(N(O)C=O)CCOCC3)CC2)c1               IC50           5200
2  Cc1ccccc1CCC1CCN(S(=O)(=O)CC2(N(O)C=O)CCN(C(=O)C3CCC3)CC2)CC1               IC50             13
3  Cc1cc(C(F)(F)F)ccc1CCC1CCN(S(=O)(=O)CC2(N(O)C=O)CCN(C(=O)C3CCC3)CC2)CC1               IC50             79
4  Cc1noc(C)c1CCC1CCN(S(=O)(=O)CC2(N(O)C=O)CCN(C(=O)C3CCC3)CC2)CC1               IC50            270

---

- Assay Remarks: Oral bioavailability in dog
- Format: ADME, organism-based, Canis lupus familiaris
- Particulars: in vivo
Below, each entry is listed with its recorded bioavailability.
Measured Property: bioavailability

>>> print(df.to_string())
                    structure_smiles_string  measured_property  result
0  Cc1noc(C)c1CCC1CCN(S(=O)(=O)C[C@](C)(C[C@H](C)c2ncc(F)cn2)N(O)C=O)CC1    bioavailability     20%
1  Cc1noc(C)c1CCC1CCN(S(=O)(=O)CC2(N(O)C=O)CCOCC2)CC1    bioavailability     52%

---

- Test Target: UniProtKB O75173
- Sequence (O75173 whole entry): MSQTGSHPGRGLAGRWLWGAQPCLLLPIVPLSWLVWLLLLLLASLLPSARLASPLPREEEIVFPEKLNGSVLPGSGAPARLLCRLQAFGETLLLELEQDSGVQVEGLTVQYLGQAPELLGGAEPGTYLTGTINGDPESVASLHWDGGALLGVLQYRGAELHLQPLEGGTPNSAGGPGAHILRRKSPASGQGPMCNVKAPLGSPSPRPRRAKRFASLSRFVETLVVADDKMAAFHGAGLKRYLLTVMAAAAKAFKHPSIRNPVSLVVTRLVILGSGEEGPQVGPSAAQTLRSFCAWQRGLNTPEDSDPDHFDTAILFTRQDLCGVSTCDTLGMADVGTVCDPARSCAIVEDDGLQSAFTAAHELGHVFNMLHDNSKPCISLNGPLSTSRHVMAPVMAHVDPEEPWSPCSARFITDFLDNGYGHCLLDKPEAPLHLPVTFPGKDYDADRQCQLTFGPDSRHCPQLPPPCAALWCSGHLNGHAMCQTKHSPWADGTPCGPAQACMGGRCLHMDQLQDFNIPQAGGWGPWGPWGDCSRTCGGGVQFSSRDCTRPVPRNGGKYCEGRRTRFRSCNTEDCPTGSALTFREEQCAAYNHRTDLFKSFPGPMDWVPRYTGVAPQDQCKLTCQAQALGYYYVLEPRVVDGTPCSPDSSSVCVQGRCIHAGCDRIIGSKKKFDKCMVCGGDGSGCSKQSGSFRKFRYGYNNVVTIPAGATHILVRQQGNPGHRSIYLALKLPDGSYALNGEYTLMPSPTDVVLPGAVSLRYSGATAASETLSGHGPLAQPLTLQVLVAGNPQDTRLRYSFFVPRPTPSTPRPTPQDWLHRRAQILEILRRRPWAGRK
- Assay Remarks: Inhibition of ADAMTS-4 assessed as substrate cleavage after 16 hrs by fluorescence assay
pIC50: −log10 of the molar value.
Assign class by pIC50: not lower than 8 means 1; lower than 8 means -1.

                    structure_smiles_string  category
0  Cc1noc(C)c1CCC1CCN(S(=O)(=O)CC2(N(O)C=O)CCN(C)CC2)CC1        -1
1  O=CN(O)C1(CS(=O)(=O)N2CCC(CCc3ccccc3)CC2)CCOCC1        -1
2  O=CN(O)C1(CS(=O)(=O)N2CCN(c3ccc(F)cc3)CC2)CCOCC1        -1
3  Cc1noc(C)c1CCC1CCN(S(=O)(=O)CC2(N(O)C=O)CCCCC2)CC1        -1
4  Cc1cc(F)ccc1CCC1CCN(S(=O)(=O)CC2(N(O)C=O)CCN(C(=O)C3CCC3)CC2)CC1         1
5  Cc1ccccc1CCC1CCN(S(=O)(=O)CC2(N(O)C=O)CCN(C(=O)C3CCC3)CC2)CC1         1

---

- Assay Remarks: Intrinsic clearance in human liver microsomes
- Assay type: ADME, Microsome
API: label(entry) gives Yes if the entry's microsomal CLint is strictly smaller than 4 µL/min/mg; on equality or larger values it gives No.

>>> print(df.to_string())
                                   compound  category
0  Cc1ccncc1CCC1CCN(S(=O)(=O)CC2(N(O)C=O)CCOCC2)CC1       Yes
1  Cc1ccccc1CCC1CCN(S(=O)(=O)CC2(N(O)C=O)CCOCC2)CC1       Yes
2  CS(=O)(=O)c1ccc(CCC2CCN(S(=O)(=O)CC3(N(O)C=O)CCOCC3)CC2)c(C2CC2)c1       Yes
3  Cc1noc(C)c1CCC1CCN(S(=O)(=O)CC2(N(O)C=O)CCS(=O)(=O)CC2)CC1        No
4  Cc1noc(C)c1CCC1CCN(S(=O)(=O)CC2(N(O)C=O)CCN(S(C)(=O)=O)CC2)CC1        No
5  Cc1noc(C)c1CCC1CCN(S(=O)(=O)CC2(N(O)C=O)CCOC(C)(C)C2)CC1 (centres undefined)        No
6  Cc1noc(C)c1CCC1CCN(S(=O)(=O)CC2(N(O)C=O)CCCCCC2)CC1        No
7  Cc1noc(C)c1CCC1CCN(S(=O)(=O)CC2(N(O)C=O)CCC2)CC1       Yes
8  Cc1cc(S(C)(=O)=O)ccc1CCC1CCN(S(=O)(=O)CC2(N(O)C=O)CCOCC2)CC1       Yes

---

- Assay Remarks: Clearance in mouse
- Type: ADME, organism-based
- Particulars: in vivo
Below, each entry is listed with its recorded clearance.
Measured Property: clearance

>>> print(df.to_string())
                    structure_smiles_string          result
0  Cc1noc(C)c1CCC1CCN(S(=O)(=O)C[C@](C)(C[C@H](C)c2ncc(F)cn2)N(O)C=O)CC1  16.8 mL/min/kg
1  Cc1noc(C)c1CCC1CCN(S(=O)(=O)CC2(N(O)C=O)CCOCC2)CC1    30 mL/min/kg

---

- Assay Remarks: Half life in dog at 1 mg/kg, iv and 1 mg/kg, po
- Assay type: ADME, organism-based, Canis lupus familiaris
- Particulars: in vivo
Measured Property: half-life

                    structure_smiles_string  result
0  Cc1noc(C)c1CCC1CCN(S(=O)(=O)CC2(N(O)C=O)CCOCC2)CC1  19.1 h

---

Below, each entry is listed with its recorded pIC50.
Target chain: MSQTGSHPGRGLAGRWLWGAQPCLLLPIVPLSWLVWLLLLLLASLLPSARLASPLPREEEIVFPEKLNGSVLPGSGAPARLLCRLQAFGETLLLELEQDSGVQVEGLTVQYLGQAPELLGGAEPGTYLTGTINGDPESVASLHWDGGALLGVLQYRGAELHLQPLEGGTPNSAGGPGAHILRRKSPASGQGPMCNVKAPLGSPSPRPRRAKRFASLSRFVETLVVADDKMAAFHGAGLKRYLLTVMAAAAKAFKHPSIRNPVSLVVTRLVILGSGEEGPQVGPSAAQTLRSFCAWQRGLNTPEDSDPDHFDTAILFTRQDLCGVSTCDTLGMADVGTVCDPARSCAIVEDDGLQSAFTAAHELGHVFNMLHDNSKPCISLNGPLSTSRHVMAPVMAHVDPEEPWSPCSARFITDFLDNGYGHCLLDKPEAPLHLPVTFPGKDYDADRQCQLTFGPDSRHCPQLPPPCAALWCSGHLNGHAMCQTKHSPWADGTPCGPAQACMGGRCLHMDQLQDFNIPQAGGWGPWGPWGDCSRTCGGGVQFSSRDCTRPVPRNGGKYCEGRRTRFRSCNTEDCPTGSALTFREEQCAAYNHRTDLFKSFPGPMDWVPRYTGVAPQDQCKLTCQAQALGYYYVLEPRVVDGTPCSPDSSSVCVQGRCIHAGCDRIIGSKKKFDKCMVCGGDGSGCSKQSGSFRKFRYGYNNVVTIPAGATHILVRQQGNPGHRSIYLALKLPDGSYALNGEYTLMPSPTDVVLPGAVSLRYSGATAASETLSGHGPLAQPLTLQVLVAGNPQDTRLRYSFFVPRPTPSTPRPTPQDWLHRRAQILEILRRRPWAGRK
pIC50: −log10 of the molar value.
Measured Property: pIC50

                    structure_smiles_string  measured_property  numeric_value
0  Cc1ncccc1CCC1CCN(S(=O)(=O)CC2(N(O)C=O)CCOCC2)CC1              pIC50           6.40
1  Cc1cnc(C)c(CCC2CCN(S(=O)(=O)CC3(N(O)C=O)CCOCC3)CC2)c1              pIC50           6.42
2  Cc1noc(C)c1CCC1CCN(S(=O)(=O)CC2(N(O)C=O)CCCCCC2)CC1              pIC50           7.32
3  CN1CCC(CS(=O)(=O)N2CCN(c3ccc(F)cc3)CC2)(N(O)C=O)CC1              pIC50           6.28
4  Cc1nsc(C)c1CCC1CCN(S(=O)(=O)CC2(N(O)C=O)CCOCC2)CC1              pIC50           7.89
